# credit: patent US9499467B2

- tested.system: GPR40 (Homo sapiens, UniProt O14842)
- Construct: expressed in transfected cells
- Sequence (O14842 whole entry): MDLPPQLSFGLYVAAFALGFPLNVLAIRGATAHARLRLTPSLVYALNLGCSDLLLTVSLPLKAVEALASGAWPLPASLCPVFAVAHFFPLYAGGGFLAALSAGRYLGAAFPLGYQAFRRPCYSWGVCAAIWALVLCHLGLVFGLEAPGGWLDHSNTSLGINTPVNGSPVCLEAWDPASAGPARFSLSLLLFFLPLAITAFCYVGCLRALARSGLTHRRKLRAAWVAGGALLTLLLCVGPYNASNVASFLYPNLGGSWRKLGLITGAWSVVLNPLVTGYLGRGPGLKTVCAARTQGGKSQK
- assay.notes: Calcium mobilization in GPR40-transfected cells
- Format: cell-based
- reported.conditions: calcium mobilization in GPR40-transfed cells
measure.name: GPR40 activity (pEC50)

Input CS(=O)(=O)Cc1ccccc1C#Cc1ccc(CCC(=O)O)c(F)c1 [Example 8] . Output GPR40 activity (pEC50): 5.84

Input C/C(C#Cc1ccc(CCC(=O)O)c(F)c1)=C/CO [Example 12] . Output GPR40 activity (pEC50): 6.37

Input C=C(C)C#Cc1ccc(CCC(=O)O)c(F)c1 [Example 2] . Output GPR40 activity (pEC50): 7.09

Input O=C(O)CCc1ccc(C#Cc2cc(F)ccc2C(F)F)cc1F [Example 14] . Output GPR40 activity (pEC50): 7.74

Input O=C(O)CCc1c(F)cc(C#Cc2ccccc2)cc1F [Example 10] . Output GPR40 activity (pEC50): 6.85

Input O=C(O)CCc1ccc(C#Cc2ccccc2)c(F)c1 [Example 11] . Output GPR40 activity (pEC50): 6.84

Input O=C(O)CCc1ccc(C#Cc2cc(Cl)cc(Cl)c2)cc1F [Example 13] . Output GPR40 activity (pEC50): 7.42

Input C/C=C(/C)C#Cc1ccc(CCC(=O)O)c(F)c1 [Example 3] . Output GPR40 activity (pEC50): 7.69
